I'd be grateful if you could share measured MIC for these entries.
Tested on: up to 32 different microorganisms
Test: in vitro antibacterial activity (MIC), agar dilution on Brain Heart Infusion (BHI) agar with Steers replicator
Assay type: cell-based
Details: organism code HH; unit assumed

MIC measured on CC[C@H]1OC(=O)[C@H](C)C(=O)[C@H](C)[C@@H](O[C@@H]2O[C@H](C)C[C@H](N(C)C)[C@H]2O)[C@@](C)(OCCNCCCc2ccccc2)C[C@@H](C)C(=O)[C@H](C)[C@H]2NC(=O)O[C@@]21C = 0.39 µg/mL

MIC measured on CC[C@H]1OC(=O)[C@H](C)C(=O)[C@H](C)[C@@H](O[C@@H]2O[C@H](C)C[C@H](N(C)C)[C@H]2O)[C@@](C)(OCC#Cc2ccccc2)C[C@@H](C)C(=O)[C@H](C)[C@H]2NC(=O)O[C@@]21C = 0.1 µg/mL

MIC measured on CCC1OC(=O)C(C)C(=O)C(C)C(OC2OC(C)CC(N(C)C)C2O)C(C)(OCC=Cc2cnc3ccc(C(=O)OC)cc3c2)CC(C)C(=O)C(C)C2NC(=O)OC12C (stereo not shown) = 0.2 µg/mL

MIC measured on CC[C@H]1OC(=O)[C@H](C)C(=O)[C@H](C)[C@@H](O[C@@H]2O[C@H](C)C[C@H](N(C)C)[C@H]2O)[C@@](C)(OCC=Cc2cnc3ccccc3c2)C[C@@H](C)C(=O)[C@H](C)[C@H]2N(N)C(=O)O[C@]12C = 0.1 µg/mL

MIC measured on CCC1OC(=O)C(C)C(=O)C(C)C(OC2OC(C)CC(N(C)C)C2O)C(C)(OCC=Cc2ccc3cccnc3c2)CC(C)C(=O)C(C)C2NC(=O)OC12C (stereo not shown) = 0.1 µg/mL

MIC measured on CCC1OC(=O)C(C)C(=O)C(C)C(OC2OC(C)CC(N(C)C)C2O)C(C)(OCC=Cc2ccc(-c3ccon3)s2)CC(C)C(=O)C(C)C2NC(=O)OC12C (stereo not shown) = 0.05 µg/mL

MIC measured on CCC1OC(=O)C(C)C(=O)C(C)C(OC2OC(C)CC(N(C)C)C2O)C(C)(OCC=Cc2cnc3ccc(F)cc3c2)CC(C)C(=O)C(C)C2NC(=O)OC12C (stereo not shown) = 0.1 µg/mL

MIC measured on C#CCOC1(C)CC(C)C(=O)C(C)C2NC(=O)OC2(C)C(CC)OC(=O)C(C)C(=O)C(C)C1OC1OC(C)CC(N(C)C)C1O (stereo not shown) = 0.78 µg/mL

MIC measured on CCC(=O)OC1C(OC2C(C)C(=O)C(C)C(=O)OC(CC)C3(C)OC(=O)NC3C(C)C(=O)C(C)CC2(C)OCC=Cc2cnc3ccccc3c2)OC(C)CC1N(C)C (stereo not shown) = 0.2 µg/mL

MIC measured on CC[C@H]1OC(=O)[C@H](C)C(=O)[C@H](C)[C@@H](O[C@@H]2O[C@H](C)C[C@H](N(C)C)[C@H]2O)[C@@](C)(OCC(=O)c2ccccc2)C[C@@H](C)C(=O)[C@H](C)[C@H]2NC(=O)O[C@@]21C = 6.2 µg/mL

MIC measured on CCC1OC(=O)C(C)C(=O)C(C)C(OC2OC(C)CC(N(C)C)C2O)C(C)(OCCCc2cnc3ccccc3c2)CC(C)C(=O)C(C)C2NC(=O)OC12C (stereo not shown) = 0.39 µg/mL

MIC measured on CCC1OC(=O)C(C)C(=O)C(C)C(OC2OC(C)CC(N(C)C)C2O)C(C)(OCC=Cc2ccc3[nH]c4ccccc4c3c2)CC(C)C(=O)C(C)C2NC(=O)OC12C (stereo not shown) = 0.1 µg/mL

MIC measured on CC[C@H]1OC(=O)[C@H](C)C(=O)[C@H](C)[C@@H](O[C@@H]2O[C@H](C)C[C@H](N(C)C)[C@H]2O)[C@@](C)(OCC=NOCc2ccc([N+](=O)[O-])cc2)C[C@@H](C)C(=O)[C@H](C)[C@H]2NC(=O)O[C@@]21C = 0.1 µg/mL

MIC measured on C=CCO[C@@]1(C)C[C@@H](C)C(=O)[C@H](C)[C@H]2N(N)C(=O)O[C@]2(C)[C@@H](CC)OC(=O)[C@H](C)C(=O)[C@H](C)[C@H]1O[C@@H]1O[C@H](C)C[C@H](N(C)C)[C@H]1O = 0.78 µg/mL

MIC measured on CCC1OC(=O)C(C)C(=O)C(C)C(OC2OC(C)CC(N(C)C)C2O)C(C)(OCC=Cc2cccc(-c3ccccc3)c2)CC(C)C(=O)C(C)C2NC(=O)OC12C (stereo not shown) = 0.39 µg/mL

MIC measured on CCC1OC(=O)C(C)C(=O)C(C)C(OC2OC(C)CC(N(C)C)C2O)C(C)(OCC=Cc2ccc3ncc(-c4cccs4)cc3c2)CC(C)C(=O)C(C)C2NC(=O)OC12C (stereo not shown) = 0.2 µg/mL

MIC measured on CCC1OC(=O)C(C)C(=O)C(C)C(OC2OC(C)CC(N(C)C)C2O)C(C)(OCC=Cc2ccc3cc(OCCBr)ccc3c2)CC(C)C(=O)C(C)C2NC(=O)OC12C (stereo not shown) = 0.39 µg/mL

MIC measured on CC[C@H]1OC(=O)[C@H](C)C(=O)[C@H](C)[C@@H](O[C@@H]2O[C@H](C)C[C@H](N(C)C)[C@H]2O)[C@@](C)(OCC#CBr)C[C@@H](C)C(=O)[C@H](C)[C@H]2NC(=O)O[C@@]21C = 0.78 µg/mL

MIC measured on CCC1OC(=O)C(C)C(=O)C(C)C(OC2OC(C)CC(N(C)C)C2O)C(C)(OCC#Cc2cnc3ccccc3c2)CC(C)C(=O)C(C)C2NC(=O)OC12C (stereo not shown) = 0.05 µg/mL
